- TARGET OF ASSAY: SIRT1 (Homo sapiens, UniProt Q96EB6)
- Sequence (Q96EB6 whole entry): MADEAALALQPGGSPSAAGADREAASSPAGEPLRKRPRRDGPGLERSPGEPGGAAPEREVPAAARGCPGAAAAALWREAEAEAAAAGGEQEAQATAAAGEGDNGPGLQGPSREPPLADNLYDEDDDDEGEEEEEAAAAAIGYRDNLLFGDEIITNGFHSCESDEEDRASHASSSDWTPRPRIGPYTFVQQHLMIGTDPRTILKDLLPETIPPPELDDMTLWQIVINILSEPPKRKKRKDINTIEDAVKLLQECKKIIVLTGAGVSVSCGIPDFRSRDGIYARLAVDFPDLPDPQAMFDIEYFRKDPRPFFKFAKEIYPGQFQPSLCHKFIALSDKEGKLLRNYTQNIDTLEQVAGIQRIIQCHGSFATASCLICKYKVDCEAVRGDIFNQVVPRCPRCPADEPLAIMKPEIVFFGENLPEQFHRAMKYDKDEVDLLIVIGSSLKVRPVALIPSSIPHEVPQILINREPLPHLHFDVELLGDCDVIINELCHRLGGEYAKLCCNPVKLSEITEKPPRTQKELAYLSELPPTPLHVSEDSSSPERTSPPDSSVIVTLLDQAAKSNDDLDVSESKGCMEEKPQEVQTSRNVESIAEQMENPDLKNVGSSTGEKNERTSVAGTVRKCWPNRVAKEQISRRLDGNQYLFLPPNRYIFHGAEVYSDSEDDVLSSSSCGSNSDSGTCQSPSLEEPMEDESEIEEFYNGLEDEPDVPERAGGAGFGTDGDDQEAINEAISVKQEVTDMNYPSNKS
- PROCEDURE DETAILS: TAMRA based mass spectrometry assay of SIRT1 activity
- Type: biochemical
- CONDITION DESCRIPTION: TAMRA assay; concentration giving 150% activation of SIRT1
MEASURE: TAMRA EC1.5 (μM)

COMPOUND: Cc1cc(C)nc(NC(=O)c2c(C)nn3ccc(-c4ccccc4C(F)(F)F)nc23)n1 [Compound 777]
ASSAY RESULT: A (EC1.5<1 μM)
//
COMPOUND: Cc1nccc(C(=O)Nc2cnc3ccc(-c4ccccc4C(F)(F)F)nn23)n1 [Compound 389]
ASSAY RESULT: A (EC1.5<1 μM)

* * *

- TARGET OF ASSAY: SIRT1 (Homo sapiens)
- PROCEDURE DETAILS: TAMRA based mass spectrometry assay of SIRT1 activity
- Format: biochemical
- CONDITION DESCRIPTION: percent maximum fold activation of SIRT1; TAMRA peptide substrate; read-out: TAMRA % Fold Act
MEASURE: Emax

Guide cases for Emax, answers given:
MOLECULE: O=C(Nc1nc(CN2CCOCC2)cs1)c1cnc2ccc(-c3ccc(F)cc3F)nn12 [Compound 42]
Emax: < 350%
//
MOLECULE: O=C(Nc1nccs1)c1cnc2ccc(-c3cccc(OC(F)(F)F)c3)nn12 [Compound 7]
Emax: < 350%
//
MOLECULE: O=C(Nc1ccnc(N2CCC2)c1)c1cnc2ccc(-c3c(F)cccc3Cl)nn12 [Compound 165]
Emax: ≥ 350%
//
MOLECULE: O=C(Nc1cnc2ccc(-c3ccccc3C(F)(F)F)nn12)c1cncc(N2CCOCC2)n1 [Compound 120]
Emax: ≥ 350%
//
MOLECULE: O=C(Nc1ccnc(N2CCC2)c1)c1cnc2ccc(-c3ccccc3Cl)nn12 [Compound 96]
Emax: ≥ 350%
//
MOLECULE: O=C(Nc1cccc(N2CCOCC2)n1)c1cnc2ccc(-c3cncc(C(F)F)c3)nn12 [Compound 60]
Emax: < 350%
//
MOLECULE: O=C(Nc1nccs1)c1cnc2ccc(-c3ccccc3C(F)(F)F)nn12 [Compound 15]
Emax: ≥ 350%
//
MOLECULE: O=C(Nc1ccccn1)c1cnc2ccc(-c3ccccc3OC(F)(F)F)nn12 [Compound 14]
Emax: ≥ 350%
//
MOLECULE: O=C(Nc1ccncc1)c1cnc2ccc(-c3ccccc3F)nn12 [Compound 136]
Emax: < 350%
//
MOLECULE: O=C(Nc1cccc(N2CCOCC2)n1)c1cnc2ccc(-c3c(F)cccc3F)nn12 [Compound 168]
Emax: ≥ 350%

Now look at this one.
Exam item: Read the entry O=C(Nc1cccc(CN2CCOCC2)n1)c1cnc2ccc(-c3cc(F)ccc3F)nn12 [Compound 30] and write its reported Emax.
Marked response: < 350%

* * *

- TARGET OF ASSAY: SIRT1 (Homo sapiens)
- PROCEDURE DETAILS: Trp mass spectrometry assay of SIRT1 activity
- Type: biochemical
- CONDITION DESCRIPTION: percent maximum fold activation of SIRT1; Trp peptide substrate; read-out: Trp % Fold Act
MEASURE: Emax

COMPOUND: O=C(Nc1cncc(F)c1)c1cnn2ccc(N3CCCCC3C(F)(F)F)nc12 (stereo not drawn) [Compound 1010]
Emax: ≥ 350%
--
COMPOUND: O=C(Nc1ccnc(N2CCC2)c1)c1cnc2ccc(-c3c(F)cccc3F)nn12 [Compound 170]
Emax: < 350%
--
COMPOUND: O=C(Nc1ccnc(N2CCC2)c1)c1cnc2ccc(-c3cncc(C(F)F)c3)nn12 [Compound 62]
Emax: < 350%
--
COMPOUND: Cn1cc2ccc(NC(=O)c3cnc4ccc(N5CCC[C@@H]5C(F)(F)F)nn34)cc2n1 [Compound 1020]
Emax: ≥ 350%
--
COMPOUND: CN1CCc2ncc(NC(=O)c3cnc4ccc(N5CCCC5C(F)(F)F)nn34)cc2C1 (stereo not drawn) [Compound 1094]
Emax: ≥ 350%
--
COMPOUND: O=C(Nc1cccnn1)c1cnn2ccc(N3CCC(C(F)(F)F)C3)nc12 (stereo not drawn) [Compound 1014]
Emax: ≥ 350%

Now look at this one.
Exam item: Read the entry C[C@@H]1CN(c2ccc3ncc(C(=O)Nc4cccnc4)n3n2)CCO1 [Compound 1002] and write its reported Emax.
Marked response: ≥ 350%

* * *

- TARGET OF ASSAY: SIRT1 (Homo sapiens, UniProt Q96EB6)
- PROCEDURE DETAILS: Trp mass spectrometry assay of SIRT1 activity
- Format: biochemical
- CONDITION DESCRIPTION: Trp assay; percent maximum fold activation; read-out: Trp % Fold Act
MEASURE: Emax

Guide cases for Emax, answers given:
COMPOUND: Cc1nc2ccc(N3CC[C@H](F)C3)nn2c1C(=O)Nc1ccncc1F
Emax: < 350%
--
COMPOUND: Cc1nc2c(OC[C@H](O)CO)cc(-c3ccccc3C(F)(F)F)nn2c1C(=O)Nc1ccncc1F
Emax: ≥ 350%
--
COMPOUND: O=C(Nc1ccc(F)cn1)c1cnc2ccc(-c3ccccc3OC(F)(F)F)nn12
Emax: < 350%
--
COMPOUND: O=C(Nc1cnccn1)c1cnc2ccc(N3CC[C@H](F)C3)nn12
Emax: < 350%
--
COMPOUND: O=C(Nc1cncc(OCC(O)CO)n1)c1cnc2ccc(-c3ccccc3C(F)(F)F)nn12 (stereo not shown)
Emax: ≥ 350%

Exam item: System SIRT1 (Homo sapiens, UniProt Q96EB6). Read-out Emax. Item `Cc1cc(C)nc(NC(=O)c2cnc3c(C)c(C)c(-c4ccccc4Cl)nn23)c1` . Report value.
Marked response: < 350%

Exam item: System SIRT1 (Homo sapiens, UniProt Q96EB6). Read-out Emax. Item `O=C(Nc1cnn2ccc(-c3ccccc3C(F)(F)F)nc12)c1cccc(-n2cnnc2)n1` . Report value.
Marked response: < 350%

Exam item: System SIRT1 (Homo sapiens, UniProt Q96EB6). Read-out Emax. Item O=C(Nc1ccc(OCC(O)CO)nc1)c1cnc2ccc(-c3ccccc3C(F)(F)F)nn12 (stereo not shown) . Report value.
Marked response: < 350%

Exam item: System SIRT1 (Homo sapiens, UniProt Q96EB6). Read-out Emax. Item `O=C(Nc1ccc(F)cn1)c1cnc2ccc(-c3ccccc3OC[C@H](O)CO)nn12` . Report value.
Marked response: < 350%

Exam item: System SIRT1 (Homo sapiens, UniProt Q96EB6). Read-out Emax. Item `Cc1ccnc(NC(=O)c2c(C)nn3ccc(-c4ccccc4C(F)(F)F)nc23)c1` . Report value.
Marked response: ≥ 350%

Exam item: System SIRT1 (Homo sapiens, UniProt Q96EB6). Read-out Emax. Item `Cc1nccc(NC(=O)c2c(C)nn3ccc(-c4ccccc4C(F)(F)F)nc23)c1C` . Report value.
Marked response: ≥ 350%

Exam item: System SIRT1 (Homo sapiens, UniProt Q96EB6). Read-out Emax. Item `O=C(Nc1cnc2ccc(-c3ccccc3Cl)nn12)c1cccc(N2CCC2)n1` . Report value.
Marked response: < 350%

Exam item: System SIRT1 (Homo sapiens, UniProt Q96EB6). Read-out Emax. Item `O=C(Nc1cnc2ccc(-c3ccccc3Cl)nn12)c1cscn1` . Report value.
Marked response: < 350%

Exam item: System SIRT1 (Homo sapiens, UniProt Q96EB6). Read-out Emax. Item `O=C(Nc1cccnn1)c1cnc2ccc(N3CCC(F)(F)CC3)nn12` . Report value.
Marked response: ≥ 350%

Exam item: System SIRT1 (Homo sapiens, UniProt Q96EB6). Read-out Emax. Item `O=C(Nc1cnc2ccc(-c3ccccc3Cl)nn12)c1ncccn1` . Report value.
Marked response: < 350%

* * *

- TARGET OF ASSAY: SIRT1 (Homo sapiens, UniProt Q96EB6)
- PROCEDURE DETAILS: Trp mass spectrometry assay of SIRT1 activity
- Assay type: biochemical
- CONDITION DESCRIPTION: Trp assay; percent maximum fold activation; read-out: Trp % Fold Act
MEASURE: Emax

COMPOUND: CC1(C)CCN(c2ccc3ncc(C(=O)Nc4cncc(F)c4)n3n2)C1
TARGET OF ASSAY: SIRT1 (Homo sapiens, UniProt Q96EB6)
ASSAY RESULT: < 350%

COMPOUND: Cc1cnc(C(=O)Nc2cnn3ccc(-c4ccccc4OC(F)(F)F)nc23)cn1
TARGET OF ASSAY: SIRT1 (Homo sapiens, UniProt Q96EB6)
ASSAY RESULT: < 350%

Exam item: Read the entry `Cc1ncccc1NC(=O)c1c(C)nn2ccc(-c3ccccc3Br)nc12` and write its reported Emax.
Marked response: ≥ 350%

Exam item: Read the entry `COc1ccc(NC(=O)c2c(C)nc3ccc(-c4ccccc4Cl)nn23)nn1` and write its reported Emax.
Marked response: < 350%

Exam item: Read the entry `CN(C)[C@H]1CCN(c2ccc3ncc(C(=O)Nc4cnccn4)n3n2)C1` and write its reported Emax.
Marked response: ≥ 350%

Exam item: Read the entry `CN1CCN(c2ccc3ncc(C(=O)Nc4ccncc4F)n3n2)CC1` and write its reported Emax.
Marked response: < 350%

Exam item: Read the entry `Cc1ncccc1NC(=O)c1cnn2ccc(-c3ccccc3C(F)(F)F)nc12` and write its reported Emax.
Marked response: ≥ 350%

Cited source for all entries: patent US9957271B2
